The compounds listed here are annotated with their Percent Effect.
- subject.of.test: Sialic acid-binding Ig-like lectin 9 (Homo sapiens) (UniProt Q9Y336)
- Sequence (Q9Y336 whole entry): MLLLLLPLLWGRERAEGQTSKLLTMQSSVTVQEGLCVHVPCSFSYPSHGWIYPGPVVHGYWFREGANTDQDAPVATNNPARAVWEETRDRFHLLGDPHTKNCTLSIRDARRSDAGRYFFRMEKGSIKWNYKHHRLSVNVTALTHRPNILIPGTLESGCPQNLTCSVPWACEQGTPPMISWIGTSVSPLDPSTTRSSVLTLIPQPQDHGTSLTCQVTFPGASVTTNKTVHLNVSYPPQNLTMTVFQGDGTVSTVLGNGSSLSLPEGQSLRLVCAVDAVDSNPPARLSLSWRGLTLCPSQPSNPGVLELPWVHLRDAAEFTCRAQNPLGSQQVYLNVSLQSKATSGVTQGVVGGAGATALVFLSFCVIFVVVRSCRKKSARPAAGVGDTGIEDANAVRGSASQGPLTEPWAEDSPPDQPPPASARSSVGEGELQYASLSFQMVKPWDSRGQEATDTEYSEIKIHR
- experiment: Hs-Siglec9 ALPHAscreen SOP 20170721
- Set-up: scale not given: direction of the effect not stated beside the values
- condition.context: 10 µM
Remember to quote the unit after the number.

Example entries and their recorded answers appear below.
[[record]]
compound = "c1ccc(OCC2CC3(CCN(c4ncccn4)CC3)CO2)nc1 (centres undefined)"
subject_of_test = "Sialic acid-binding Ig-like lectin 9 (Homo sapiens) (UniProt Q9Y336)"
metric = "Percent Effect"
result = "-2.52%"

[[record]]
compound = "CCC1CCCN(C(=O)Cc2csc(-c3ncccn3)n2)C1 (centres undefined)"
subject_of_test = "Sialic acid-binding Ig-like lectin 9 (Homo sapiens) (UniProt Q9Y336)"
metric = "Percent Effect"
result = "-8.02%"


Req: Using the record for CC(C)(C)c1nnc(CN2CCN(CC(O)c3ccccc3)CC2)o1 (centres undefined) , report its Percent Effect.
Resp: 7.24%

Req: Look up Percent Effect for this compound: c1cncc(COCC2CN(Cc3ccco3)Cc3ccnn3C2)c1 (centres undefined)
Resp: 4.29%

Req: Entry CCn1c(C)cc(C(=O)N2CCCC(c3nc(C)no3)C2)c1C (centres undefined) has what Percent Effect?
Resp: -3.42%

---

- subject.of.test: Protein translocase subunit SecA (Escherichia coli (strain K12)) (UniProt P10408)
- Sequence (P10408 whole entry): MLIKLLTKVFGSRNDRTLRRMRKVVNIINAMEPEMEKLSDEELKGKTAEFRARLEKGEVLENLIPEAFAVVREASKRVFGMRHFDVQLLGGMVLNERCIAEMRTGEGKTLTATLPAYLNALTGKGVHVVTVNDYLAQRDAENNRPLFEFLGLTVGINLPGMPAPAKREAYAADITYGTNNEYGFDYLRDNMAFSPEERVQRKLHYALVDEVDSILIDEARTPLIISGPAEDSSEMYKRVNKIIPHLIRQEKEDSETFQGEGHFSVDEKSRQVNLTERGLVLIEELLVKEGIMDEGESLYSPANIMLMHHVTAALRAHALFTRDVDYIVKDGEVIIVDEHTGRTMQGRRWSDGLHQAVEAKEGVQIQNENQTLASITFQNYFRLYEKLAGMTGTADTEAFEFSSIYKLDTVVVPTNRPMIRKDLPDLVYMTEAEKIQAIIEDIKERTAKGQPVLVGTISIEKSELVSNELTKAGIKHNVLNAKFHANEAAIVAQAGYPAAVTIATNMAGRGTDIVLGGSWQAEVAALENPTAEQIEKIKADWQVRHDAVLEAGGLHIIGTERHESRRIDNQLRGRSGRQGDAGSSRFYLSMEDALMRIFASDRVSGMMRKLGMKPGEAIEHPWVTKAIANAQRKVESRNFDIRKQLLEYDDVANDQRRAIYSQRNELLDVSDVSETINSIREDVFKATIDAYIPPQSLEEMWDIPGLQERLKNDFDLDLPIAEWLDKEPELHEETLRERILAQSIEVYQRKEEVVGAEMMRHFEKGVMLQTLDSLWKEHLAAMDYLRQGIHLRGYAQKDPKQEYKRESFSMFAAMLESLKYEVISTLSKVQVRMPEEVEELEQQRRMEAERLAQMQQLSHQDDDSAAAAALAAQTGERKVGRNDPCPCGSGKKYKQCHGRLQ
- experiment: Assay to Identify E. coli SecA ATPase Inhibitors
- Assay type: functional
- Parameters: scale not given: direction of the effect not stated beside the values
- condition.context: 30 µM
Potency and affinity values are given separately.
The entries below come with measured Percent Effect values attached.
Value and unit, in that order.

# example entries with known answers
[[record]]
compound = "O=C(c1cccc(S(=O)(=O)NCCCc2ncc[nH]2)c1)N1CCOCC1"
result = "-1.26%"

[[record]]
compound = "COc1ccc(CN2CCC3(CC2)CCN(c2ncccn2)CC3)cc1"
result = "-2.42%"

[[record]]
compound = "Cc1cnn(CC2CCCN2Cc2nnsc2Cl)c1 (centres undefined)"
result = "-4.93%"

[[record]]
compound = "Cc1nc(CNC(=O)NCC(O)c2ccc(F)c(F)c2)cs1 (centres undefined)"
result = "-1.38%"


Req: Write down the reported Percent Effect of CCc1ccc(S(=O)(=O)Nc2cc(C(=O)O)c(F)cc2F)s1 , test system: Protein translocase subunit SecA (Escherichia coli (strain K12)) (UniProt P10408).
Resp: -10.3%

Req: Hello, I am looking for reported Percent Effect with Protein translocase subunit SecA (Escherichia coli (strain K12)) (UniProt P10408) for O=C(NCc1ccncc1)N(Cc1ccccc1F)C1CC1 . Could you help?
Resp: -6.03%

Req: What is its Percent Effect for Protein translocase subunit SecA (Escherichia coli (strain K12)) (UniProt P10408)? Entry: Cc1cc(CN2CCC(CNC(=O)c3nccc4ccccc34)C2)[nH]n1 (centres undefined)
Resp: 1.25%

Req: Any idea what Percent Effect came out for CCOc1ccc(Cl)cc1C1CCCN1 (centres undefined) on Protein translocase subunit SecA (Escherichia coli (strain K12)) (UniProt P10408)?
Resp: -3.13%

Req: Recall the recorded Percent Effect for CC(C)c1nn(C)c(N(C)C)c1CNCc1ccc2c(c1)OCO2 with Protein translocase subunit SecA (Escherichia coli (strain K12)) (UniProt P10408) and state it.
Resp: -3%

Req: Hello, I am looking for reported Percent Effect with Protein translocase subunit SecA (Escherichia coli (strain K12)) (UniProt P10408) for Cn1ccnc1SCc1nc(C(C)(C)NC(=O)OC(C)(C)C)no1 . Could you help?
Resp: -5.41%

Req: Hello, I am looking for reported Percent Effect with Protein translocase subunit SecA (Escherichia coli (strain K12)) (UniProt P10408) for CC(NC(=O)CSCC#N)c1cccc(NC(=O)c2ccccc2)c1 (centres undefined) . Could you help?
Resp: -6.35%

Req: Short answer please: Percent Effect, Protein translocase subunit SecA (Escherichia coli (strain K12)) (UniProt P10408), entry CN(C)c1ccc(CCNC(=O)NCc2ccc(N(C)C)nc2)cc1
Resp: -3.23%

Req: Given the entry Cc1cnc2c(S(=O)(=O)NCC3CCN(C4CC4)C3)cccc2c1 (centres undefined) , what Percent Effect was observed with Protein translocase subunit SecA (Escherichia coli (strain K12)) (UniProt P10408)?
Resp: -4.76%
